- Target under test: human MCH receptor (Homo sapiens)
- Assay protocol: functional IC50 of MCH1R antagonists: cellular calcium flux (FLIPR), called calcium immobilization assay
- Condition context: calcium flux after addition of agonist (MCH), recombinant HEK293 cell line expressing the human MCH receptor
Assignment: determine reported pIC50 for the given compounds.
Answers are plain numbers, as −log10 of the molar value.

Quick request: pIC50 for each listed item, please.
1. CC1CCOC1COc1ccc2c(=O)n(-c3ccc(N4CC[C@@H](N5CCCC5)C4)c(F)c3)ccc2c1 (stereo partly shown)
2. CC[C@H](O)COc1ccc2c(c1)CCN(c1ccc(N3CCC4CN(C)CC43)cc1)C2=O (stereo partly shown)
3. CC(=O)N(C)C1CCCN(c2ccc(-n3ccc4cc(OC[C@@H]5CCCO5)ccc4c3=O)cc2)C1 (stereo partly shown)
4. COCCCNC1CCN(c2ccc(-n3ccc4cc(OC[C@H]5CCCO5)ccc4c3=O)cc2F)C1 (stereo partly shown)

[6.30, 5.71, 5.43, 6.42]

----------
- Target under test: human MCH receptor (Homo sapiens, UniProt Q99705)
- Sequence (Q99705 whole entry): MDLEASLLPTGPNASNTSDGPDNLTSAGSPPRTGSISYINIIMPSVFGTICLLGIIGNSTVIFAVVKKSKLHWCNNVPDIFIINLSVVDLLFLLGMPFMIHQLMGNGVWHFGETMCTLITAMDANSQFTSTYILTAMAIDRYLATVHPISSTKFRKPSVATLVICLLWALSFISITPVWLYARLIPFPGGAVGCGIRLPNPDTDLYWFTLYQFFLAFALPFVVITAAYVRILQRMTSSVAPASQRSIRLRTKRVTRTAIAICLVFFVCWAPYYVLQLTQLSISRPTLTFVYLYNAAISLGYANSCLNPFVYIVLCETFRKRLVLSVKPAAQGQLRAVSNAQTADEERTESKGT
- Assay protocol: functional IC50 of MCH1R antagonists: cellular calcium flux (FLIPR), called calcium immobilization assay
- Condition context: calcium flux after addition of agonist (MCH), recombinant HEK293 cell line expressing the human MCH receptor
Assignment: determine reported IC50 for the given compounds.
Answers are plain numbers, in nM.

CC1CCN(c2ccc3c(c2)CCN(c2ccc(N4CC[C@@H](N(C)C)C4)c(F)c2)C3=O)CC1; 1190
CO[C@@H]1CN(c2ccc(-n3ccc4cc(OC[C@H]5CCCO5)ccc4c3=O)cc2F)C[C@H]1N(C)C (relative stereo); 23800
O=C1c2ccc(OC[C@@H]3CCCO3)cc2CCN1c1ccc(N2CCC(N3CC4CCC4C3)C2)c(F)c1 (stereo partly shown); 590
CC1=C(C)C(=O)N(c2ccc3c(c2)CCN(c2ccc(N4CC[C@@H](N(C)C)C4)c(F)c2)C3=O)C1; 7540

Quick request: IC50 for each listed item, please.
1. CCCCOc1ccc2c(c1)CCN(c1ccc(N3CCC(N(C)C)C3)c(Cl)c1)C2=O (stereo not shown)
2. O=C1CCCN1CCOc1ccc2c(=O)n(-c3ccc(N4CC[C@@H](N5CCCC5)C4)c(F)c3)ccc2c1
3. COc1cc(-n2ccc3cc(OC[C@@H]4CCCO4)ccc3c2=O)ccc1N1CCCN(C)CC1

1. 990
2. 13000
3. 220

Numbers sourced from patent US8822495B2.
